- Test system: mouse plasma stability, LC-MS/MS, 48 h
- test_summary: Inhibitors of 12-hLO: Mouse Plasma Stability Profiling
- assay_conditions: at 2 µM; hits give high values
observation_type: percent remaining (%)
Report only the number, with the unit % understood.

Asked: Give mouse plasma stability, LC-MS/MS, 48 h percent remaining for CC(=O)NC(c1cccs1)c1cc(Br)c2cccnc2c1O (stereo unspecified)
Given back: 98.3
